Assayed target: hMSH2/MSH3 (Homo sapiens, UniProt P20585+P43246)
Sequence (P43246 2-934): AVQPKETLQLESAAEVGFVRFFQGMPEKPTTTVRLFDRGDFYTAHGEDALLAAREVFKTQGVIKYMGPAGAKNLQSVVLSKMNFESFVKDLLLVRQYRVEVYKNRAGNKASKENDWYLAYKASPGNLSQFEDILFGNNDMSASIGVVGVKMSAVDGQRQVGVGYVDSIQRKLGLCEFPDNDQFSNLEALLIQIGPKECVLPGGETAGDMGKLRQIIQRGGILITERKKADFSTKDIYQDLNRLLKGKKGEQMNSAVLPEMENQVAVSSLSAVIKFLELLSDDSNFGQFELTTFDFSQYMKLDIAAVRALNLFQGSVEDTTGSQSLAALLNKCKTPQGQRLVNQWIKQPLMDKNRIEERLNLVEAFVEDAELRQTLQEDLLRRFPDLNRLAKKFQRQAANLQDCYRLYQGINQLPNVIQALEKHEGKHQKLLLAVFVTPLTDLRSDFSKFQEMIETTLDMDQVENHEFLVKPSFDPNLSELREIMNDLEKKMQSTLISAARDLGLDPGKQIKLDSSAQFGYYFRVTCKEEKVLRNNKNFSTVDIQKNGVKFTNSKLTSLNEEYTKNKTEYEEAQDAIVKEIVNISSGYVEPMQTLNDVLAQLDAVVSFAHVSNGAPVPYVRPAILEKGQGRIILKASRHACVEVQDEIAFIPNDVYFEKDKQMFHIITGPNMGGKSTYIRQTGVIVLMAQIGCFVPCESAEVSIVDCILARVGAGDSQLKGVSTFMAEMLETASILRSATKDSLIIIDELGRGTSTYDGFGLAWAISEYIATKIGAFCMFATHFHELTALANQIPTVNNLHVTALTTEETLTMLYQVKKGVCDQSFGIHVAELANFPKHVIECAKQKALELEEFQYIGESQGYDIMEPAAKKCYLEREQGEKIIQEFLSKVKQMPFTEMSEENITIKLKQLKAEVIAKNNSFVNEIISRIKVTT
Sequence (P20585 whole entry): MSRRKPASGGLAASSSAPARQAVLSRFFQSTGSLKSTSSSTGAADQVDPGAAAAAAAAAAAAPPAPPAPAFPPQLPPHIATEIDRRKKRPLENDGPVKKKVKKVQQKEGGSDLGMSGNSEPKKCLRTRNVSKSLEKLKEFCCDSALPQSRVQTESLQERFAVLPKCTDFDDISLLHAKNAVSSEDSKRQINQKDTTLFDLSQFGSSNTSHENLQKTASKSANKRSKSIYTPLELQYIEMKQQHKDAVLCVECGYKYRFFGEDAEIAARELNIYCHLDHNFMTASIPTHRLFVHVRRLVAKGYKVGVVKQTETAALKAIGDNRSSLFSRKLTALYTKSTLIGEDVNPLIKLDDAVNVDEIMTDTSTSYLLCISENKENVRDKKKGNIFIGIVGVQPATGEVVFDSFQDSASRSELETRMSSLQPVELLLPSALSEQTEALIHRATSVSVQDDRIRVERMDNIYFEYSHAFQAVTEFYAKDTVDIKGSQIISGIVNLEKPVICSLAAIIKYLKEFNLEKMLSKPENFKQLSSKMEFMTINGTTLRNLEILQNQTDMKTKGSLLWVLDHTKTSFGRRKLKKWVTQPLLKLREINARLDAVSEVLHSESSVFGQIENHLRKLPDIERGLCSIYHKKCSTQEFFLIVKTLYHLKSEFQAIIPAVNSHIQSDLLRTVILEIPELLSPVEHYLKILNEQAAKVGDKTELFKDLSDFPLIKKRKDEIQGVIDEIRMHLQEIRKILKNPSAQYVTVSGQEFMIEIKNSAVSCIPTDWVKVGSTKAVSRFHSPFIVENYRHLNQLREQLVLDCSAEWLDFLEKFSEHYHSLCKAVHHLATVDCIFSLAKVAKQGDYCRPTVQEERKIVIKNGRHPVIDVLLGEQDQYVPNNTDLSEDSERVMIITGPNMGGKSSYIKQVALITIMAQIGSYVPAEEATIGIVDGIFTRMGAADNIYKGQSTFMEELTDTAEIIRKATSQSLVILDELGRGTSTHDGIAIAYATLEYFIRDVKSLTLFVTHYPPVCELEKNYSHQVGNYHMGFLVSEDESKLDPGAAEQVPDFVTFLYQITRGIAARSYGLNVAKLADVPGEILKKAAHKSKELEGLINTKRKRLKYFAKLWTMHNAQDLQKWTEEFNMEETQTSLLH
Assay details: fluorescence anisotropy competition, displacement of pre-bound BD-ADP
Type: binding
Readout kind: pKi
Reminder that pKi is minus the log10 of a molar concentration.

Ask | Give me measured pKi, please, for this compound: Nc1ncnc2c1ncn2[C@@H]1O[C@H](COP(=O)(O)OP(=O)(O)NP(=O)(O)O)[C@@H](O)[C@H]1O
Reply | 4.95

###

Assayed target: hMSH2/MSH6 (Homo sapiens, UniProt P43246+P52701)
Sequence (P52701 whole entry, one chain of several): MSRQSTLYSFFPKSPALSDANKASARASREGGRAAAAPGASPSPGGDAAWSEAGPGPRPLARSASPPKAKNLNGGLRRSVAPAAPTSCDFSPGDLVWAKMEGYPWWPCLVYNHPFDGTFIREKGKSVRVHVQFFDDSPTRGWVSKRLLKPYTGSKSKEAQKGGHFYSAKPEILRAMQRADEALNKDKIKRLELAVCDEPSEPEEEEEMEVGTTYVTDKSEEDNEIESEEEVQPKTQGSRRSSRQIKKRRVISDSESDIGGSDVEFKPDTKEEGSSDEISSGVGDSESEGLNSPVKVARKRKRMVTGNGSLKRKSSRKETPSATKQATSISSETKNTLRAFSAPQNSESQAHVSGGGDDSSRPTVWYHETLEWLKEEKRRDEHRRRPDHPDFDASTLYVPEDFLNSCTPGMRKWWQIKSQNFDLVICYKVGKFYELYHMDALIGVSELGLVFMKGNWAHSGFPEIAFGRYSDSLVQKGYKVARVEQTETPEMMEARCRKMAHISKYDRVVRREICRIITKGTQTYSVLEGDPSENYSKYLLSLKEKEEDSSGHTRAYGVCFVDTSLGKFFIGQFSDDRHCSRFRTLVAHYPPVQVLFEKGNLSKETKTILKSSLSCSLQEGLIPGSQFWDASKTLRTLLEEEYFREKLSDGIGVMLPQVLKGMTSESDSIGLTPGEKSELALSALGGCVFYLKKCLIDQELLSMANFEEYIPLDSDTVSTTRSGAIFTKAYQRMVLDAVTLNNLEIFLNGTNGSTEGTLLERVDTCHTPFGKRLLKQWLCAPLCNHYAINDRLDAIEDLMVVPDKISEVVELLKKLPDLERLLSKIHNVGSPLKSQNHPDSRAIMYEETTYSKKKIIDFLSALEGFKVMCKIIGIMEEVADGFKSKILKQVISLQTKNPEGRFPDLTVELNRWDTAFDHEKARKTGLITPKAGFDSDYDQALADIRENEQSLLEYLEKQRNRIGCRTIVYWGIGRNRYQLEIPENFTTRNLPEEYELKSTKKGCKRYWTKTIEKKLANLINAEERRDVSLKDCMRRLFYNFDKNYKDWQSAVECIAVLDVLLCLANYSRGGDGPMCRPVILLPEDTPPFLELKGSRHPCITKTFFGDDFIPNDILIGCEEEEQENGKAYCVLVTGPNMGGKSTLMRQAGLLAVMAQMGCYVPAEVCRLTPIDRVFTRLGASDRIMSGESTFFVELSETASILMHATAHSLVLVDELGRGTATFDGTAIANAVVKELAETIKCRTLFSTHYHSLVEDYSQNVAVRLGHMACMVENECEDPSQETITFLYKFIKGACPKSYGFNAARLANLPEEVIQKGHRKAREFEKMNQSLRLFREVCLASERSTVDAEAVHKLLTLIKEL
Assay details: UV cross-linking of [alpha-32P]-ADP, SDS-PAGE
Assay type: binding
Readout kind: Kd (nM)
Respond with the bare value in nM.

Ask | Give me measured Kd, please, for this molecule: Nc1ncnc2c1ncn2[C@@H]1O[C@H](COP(=O)(O)OP(=O)(O)O)[C@@H](O)[C@H]1O [ADP]
Reply | 650
